assay: Selectivity index, ratio of CC50 for cytotoxicity against human MT4 cells to EC50 of Anti-HIV activity against HIV-1 IIIB infected in human MT4 cells; format: toxicity, cell-based; conditions: read-out: Ratio CC50/EC50
reported-metric: selectivity ratio
Note: the reply should be a number with no unit written.

Example entries and their recorded answers appear below.
[
  {
    "entry-smiles": "Cn1c(Cn2ccc(C(F)(F)F)c(Oc3ccc(-c4ccc(F)c(C#N)c4)cc3Cl)c2=O)n[nH]c1=O",
    "reported-metric": "selectivity ratio",
    "value-observed": 5.39
  },
  {
    "entry-smiles": "Cn1c(Cn2ccc(C(F)(F)F)c(Oc3ccc(-c4cccc(C#N)c4)cc3Cl)c2=O)n[nH]c1=O",
    "reported-metric": "selectivity ratio",
    "value-observed": 5.62
  },
  {
    "entry-smiles": "Cn1c(Cn2ccc(C(F)(F)F)c(Oc3ccc(-c4ccc(C#N)cc4)c(F)c3)c2=O)n[nH]c1=O",
    "reported-metric": "selectivity ratio",
    "value-observed": 37.8
  }
]

# evaluate next
Query: Could you tell me which selectivity ratio is on file for `Cc1cc(Oc2c(C(F)(F)F)ccn(Cc3n[nH]c(=O)n3C)c2=O)ccc1-c1cc(F)cc(C#N)c1` ?
Reply: 29.4
